- assay-summary: ED50 compared to that of taxol.
- Type: functional
Field: Ratio. Provide a value for each of the compounds that follow.
Give bare numbers.

CC(=O)O[C@@H]1C2=C(C)[C@@H](OC(=O)[C@H](O)[C@@H](NC(=O)c3ccccc3)c3ccccc3)C[C@@](O)([C@@H](OC(=O)c3ccccc3)[C@@H]3[C@]4(OC(C)=O)CO[C@@H]4C[C@@H]4OC(C)(C)O[C@@H]1[C@]43C)C2(C)C
0.76

Kindly give each listed record's Ratio.
1. CO[C@H]1C[C@H]2OC[C@@]2(OC(C)=O)[C@H]2[C@H](OC(=O)c3ccccc3)[C@]3(O)C[C@H](OC(=O)[C@H](O)[C@@H](NC(=O)c4ccccc4)c4ccccc4)C(C)=C([C@@H](OC(C)=O)[C@H](O)[C@]12C)C3(C)C
2. CO[C@H]1[C@H](OC(C)=O)C2=C(C)[C@@H](OC(=O)[C@H](O)[C@@H](NC(=O)OC(C)(C)C)c3ccccc3)C[C@@](O)([C@@H](OC(=O)c3ccccc3)[C@@H]3[C@]4(OC(C)=O)CO[C@@H]4C[C@H](O)[C@]31C)C2(C)C
3. CCN(CC)CCO[C@H]1C[C@H]2OC[C@@]2(OC(C)=O)[C@H]2[C@H](OC(=O)c3ccccc3)[C@]3(O)C[C@H](OC(=O)[C@H](O)[C@@H](NC(=O)c4ccccc4)c4ccccc4)C(C)=C([C@@H](OC(C)=O)[C@H](O)[C@]12C)C3(C)C

A:
1: 0.92; 2: 0.51; 3: 2.61
